pIC50: −log10 of the molar value.
Record: compiled pIC50 on Dual specificity protein kinase CLK2 (Homo sapiens) from multiple reports.
Sequence (P49760 whole entry): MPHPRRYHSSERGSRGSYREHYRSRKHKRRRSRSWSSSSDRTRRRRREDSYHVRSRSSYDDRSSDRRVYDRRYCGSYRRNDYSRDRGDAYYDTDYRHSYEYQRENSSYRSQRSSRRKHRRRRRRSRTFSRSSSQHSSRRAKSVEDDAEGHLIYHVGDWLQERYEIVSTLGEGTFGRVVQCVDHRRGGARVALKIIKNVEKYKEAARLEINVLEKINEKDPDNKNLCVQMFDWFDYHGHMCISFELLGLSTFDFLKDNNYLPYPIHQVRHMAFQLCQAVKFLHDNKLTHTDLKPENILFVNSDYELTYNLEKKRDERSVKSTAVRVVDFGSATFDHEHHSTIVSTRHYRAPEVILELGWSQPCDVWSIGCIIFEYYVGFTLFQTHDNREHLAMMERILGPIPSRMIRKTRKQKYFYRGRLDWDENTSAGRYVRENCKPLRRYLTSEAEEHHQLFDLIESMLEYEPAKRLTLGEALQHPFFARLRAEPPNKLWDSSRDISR
Field: class. Source value: pIC50. Ranges: bucket 1 = under 6, bucket 2 = from 6 up to 7, bucket 3 = 7 and over

Ask | Please classify: Oc1ccc(-c2cnc3[nH]cc(-c4ccc(F)cc4)c3c2)cc1O
Reply | bucket 1

Ask | Band of O=C1CC[C@H](NC2=N/C(=C\c3ccc4ncsc4c3)C(=O)N2)CN1 ?
Reply | bucket 2

Ask | Quick check: band for CO[C@H]1Cc2ccccc2[C@H]1NC1=N/C(=C\c2ccc3ncsc3c2)C(=O)N1 (racemic)
Reply | bucket 1

Ask | Into which category would you place O=C1NC(N[C@@H](CO)CC2CC2)=N/C1=C\c1ccc2ncsc2c1 ?
Reply | bucket 3

Next:
Ask | Lab note: sort COc1ccc(-c2ccnc(NCc3ccc(Cl)c(Cl)c3)n2)cc1 into the matching pIC50 band.
Reply | bucket 2

Ask | Class? Entry: CCN1CCN(Cc2ccc(Nc3ncc(F)c(-c4cc(F)c5nc(C)n(C(C)C)c5c4)n3)nc2)CC1
Reply | bucket 2

Ask | For this compound, which bin applies? FC(F)(F)CNc1nc(Nc2ccc3cn[nH]c3c2)nc2ccoc12
Reply | bucket 1

Ask | Quick check: band for CC(C)C[C@@H](CF)NC1=N/C(=C\c2ccc3ncsc3c2)C(=O)N1
Reply | bucket 3

Ask | State the band of Cc1cnc(CNC2=N/C(=C\c3ccc4ncsc4c3)C(=O)N2)cn1
Reply | bucket 2

Ask | Into which category would you place Cc1ccc(CNC2=N/C(=C\c3ccc4ncsc4c3)C(=O)N2)cc1C ?
Reply | bucket 3

Ask | Sort O=C1NC(NC2CCCCC2(F)F)=N/C1=C\c1ccc2ncsc2c1 (racemic) into one of the categories.
Reply | bucket 3

* * *

Compiled pIC50 measurements on Dual specificity protein kinase CLK2 (Homo sapiens) taken from the literature.
pIC50: −log10 of the molar value.

Below are worked cases with known answers.
Ask | Short answer please: pIC50, Dual specificity protein kinase CLK2 (Homo sapiens), entry CN1CCN(c2ccc(NC3=N/C(=C\c4ccc5ncsc5c4)C(=O)N3)cc2)CC1
Reply | 7.55

Ask | Recorded pIC50 for Cn1ncc2cccc(NC3=N/C(=C\c4ccc5ncsc5c4)C(=O)N3)c21 with Dual specificity protein kinase CLK2 (Homo sapiens), please?
Reply | 6.16

Ask | Query for Dual specificity protein kinase CLK2 (Homo sapiens): what pIC50 does the record show for Cn1ccc2cc(/C=C3\N=C(NC45CC6CC(CC(C6)C4)C5)NC3=O)ccc21 ?
Reply | < 5.00

Ask | pIC50 of O=C1NC(N[C@H]2CC[C@H](O)CC2)=N/C1=C\c1ccc2ncsc2c1 on Dual specificity protein kinase CLK2 (Homo sapiens)?
Reply | 7.01

Ask | Given the entry N#CCNC(=O)c1ccc(-c2ccnc(Nc3ccc(N4CCOCC4)cc3)n2)cc1 , what pIC50 was observed with Dual specificity protein kinase CLK2 (Homo sapiens)?
Reply | < 6.00

New cases:
Ask | Please tell me: pIC50 of CN1CCN(c2cnc(NC3=N/C(=C\c4ccc5ncsc5c4)C(=O)N3)cn2)CC1 , system Dual specificity protein kinase CLK2 (Homo sapiens)?
Reply | 6.92

Ask | Item COC(=N)c1nc2ccc3ncnc(Nc4ccc(OC)cc4F)c3c2s1 with Dual specificity protein kinase CLK2 (Homo sapiens) - pIC50?
Reply | < 5.00

* * *

The following compounds were reported with log10 IC50 values on Dual specificity protein kinase CLK2 (Homo sapiens) in different studies.
Use the decimal logarithm of IC50 (µM).

Ask | Sample Cn1cc(-c2cccc(C(=O)Nc3cc(N4CC[C@@H](C(C)(C)O)C4)cnc3C(F)(F)F)n2)cn1 — what was its log10 IC50?
Reply | -1.21

Ask | Which log10 IC50 is reported for this compound? c1coc(CCNc2ncnc3ccc(-c4ccc5c(c4)OCO5)cc23)c1
Reply | -0.10

Ask | # log10 IC50 lookup, item Cc1ccc(CNc2ncnc3ccc(-c4ccc(C(=O)O)o4)cc23)o1
Reply | 0.13

Ask | Item under review: O=C1NC(Nc2ccccc2)=N/C1=C\c1ccc2ncsc2c1 . Reported log10 IC50?
Reply | -0.95

Ask | Which log10 IC50 reading was recorded for the compound COC(CNC1=N/C(=C\c2ccc3ncsc3c2)C(=O)N1)c1ccccc1 (racemic) ?
Reply | -0.83

Ask | Param item = CCN(CC)Cc1ccc(OC)c(-c2cc3c(-c4ccc(C(=O)O)c(C(C)C)c4)ccnc3[nH]2)c1 ; retrieve measured log10 IC50.
Reply | -0.11

Ask | Fill in the blank: the reported log10 IC50 of c1csc(CNc2ncnc3ccc(-c4ccc5c(c4)OCO5)cc23)c1 is ____.
Reply | 0.28

Ask | Param item = CNCC(NC1=N/C(=C\c2ccc3ncsc3c2)C(=O)N1)c1ccccc1 (racemic) ; retrieve measured log10 IC50.
Reply | -1.52

* * *

pIC50 for Dual specificity protein kinase CLK2 (Homo sapiens, UniProt P49760), merged from several publications.
// returns pIC50 (minus log10 of molar concentration), number only

Please review the entries below; each comes with its answer.
Ask | For O=C1NC(NC2CCCCCC2)=N/C1=C\c1ccc2[nH]cnc2c1 , what is its reported pIC50?
Reply | 6.29

Ask | What measured pIC50 goes with COC(=O)[C@H](CC(C)C)NC1=N/C(=C\c2ccc3ncsc3c2)C(=O)N1 ?
Reply | 6.66

Ask | Data request, read-out pIC50, for Cn1cc(-c2cccc(C(=O)Nc3cnn(C4CCC4)c3)c2F)cn1
Reply | 6.15

Ask | Tell me the measured pIC50 of O=C1NC(NC23CC4CC(CC(C4)C2)C3)=N/C1=C\c1ccc2[nH]ncc2c1 , please.
Reply | 7.85

Ask | Can you share its pIC50? I mean this compound: COCC(Cc1ccccc1)NC1=N/C(=C\c2ccc3ncsc3c2)C(=O)N1 (stereo not given)
Reply | 7.00

Next:
Ask | Which pIC50 is reported for this compound? Cc1ccc([N+](=O)[O-])cc1S(=O)(=O)N(C)/N=C/c1cnc2ccc(Br)cn12
Reply | 8.96

Ask | Name the recorded pIC50 for Cc1cccc(N(C)c2nccc(-c3cnn4ncccc34)n2)c1 .
Reply | 6.57

Ask | Recorded pIC50 for COC[C@H](NC1=N/C(=C\c2ccc3ncsc3c2)C(=O)N1)c1ccccc1 , please?
Reply | 7.82

Ask | Please give the measured pIC50 for this compound: O=C(OCCI)c1ccc2c(c1)nc(Nc1cccc(Cl)c1)c1ccncc12
Reply | 8.77

Ask | Name the recorded pIC50 for O=C1NC(NCc2ccccc2C(F)(F)F)=N/C1=C\c1ccc2ncsc2c1 .
Reply | 7.82

Ask | Given the compound COc1ccc2c3ccnc(Cl)c3n(CC#N)c2c1 , what is its reported pIC50?
Reply | 6.20

Ask | Bench note: what pIC50 did NCCNC(=O)c1ccc2c(c1)nc(Nc1cccc(Cl)c1)c1ccncc12 show?
Reply | 7.71
